In this section we review reported EC50 values for a set of compounds.
measuredTarget: 5-hydroxytryptamine receptor 2A (Homo sapiens)
Sequence (P28223 whole entry): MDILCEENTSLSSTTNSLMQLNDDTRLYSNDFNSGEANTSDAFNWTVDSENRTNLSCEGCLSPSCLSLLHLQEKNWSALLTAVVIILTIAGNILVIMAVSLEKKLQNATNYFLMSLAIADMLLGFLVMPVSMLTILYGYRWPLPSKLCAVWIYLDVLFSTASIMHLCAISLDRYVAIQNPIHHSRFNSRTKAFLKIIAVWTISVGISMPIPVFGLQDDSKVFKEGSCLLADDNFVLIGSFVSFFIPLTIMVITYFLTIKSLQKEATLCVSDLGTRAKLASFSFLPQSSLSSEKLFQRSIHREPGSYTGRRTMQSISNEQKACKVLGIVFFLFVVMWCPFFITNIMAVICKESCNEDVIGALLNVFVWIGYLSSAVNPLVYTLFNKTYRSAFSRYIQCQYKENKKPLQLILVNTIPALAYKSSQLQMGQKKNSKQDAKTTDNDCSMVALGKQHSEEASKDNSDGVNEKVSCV
assayText: Agonist activity at human 5HT2A receptor stably expressed in Flp-In-T-REx-293 cells assessed as increase in Gq-mediated calcium flux by Fluo-4 direct dye based FLIPR Tetra assay
Write the number in nM without appending the unit.

Consider the worked cases shown below.
> print(dat)
                                   compound  readout  valuereported
1  CCC1NCCc2c1[nH]c1ccc(Cl)cc21 (configuration not stated)     EC50            398
2  Oc1cccc(C2NCCc3c2[nH]c2ccc(O)cc32)c1 (configuration not stated)     EC50            223
3  COc1ccccc1C1NCCc2c1[nH]c1ccc(F)cc21 (configuration not stated)     EC50            126
4  COc1ccccc1C1NCCc2c1[nH]c1ccc(O)cc21 (configuration not stated)     EC50            269
5  Fc1ccc2[nH]c3c(c2c1)CCNC3C1CCOCC1 (configuration not stated)     EC50            354
6  Cc1cccc(C2NCCc3c2[nH]c2ccc(F)cc32)c1 (configuration not stated)     EC50            160

Consider the compound shown here: COc1ccc(C2NCCc3c2[nH]c2ccc(F)cc32)c(OC)c1 (configuration not stated) What is its recorded EC50?
167

Consider the compound shown here: Oc1ccc(Br)cc1C1NCCc2c1[nH]c1ccc(F)cc21 (configuration not stated) What is its recorded EC50?
1110

Consider the compound shown here: Clc1ccc2[nH]c3c(c2c1)CCNC3c1ccccc1Cl (configuration not stated) What is its recorded EC50?
12.8

Consider the compound shown here: Clc1ccc2[nH]c3c(c2c1)CCNC3Cc1ccccc1 (configuration not stated) What is its recorded EC50?
2620

Consider the compound shown here: CCC1NCCc2c1[nH]c1ccc(F)cc21 (configuration not stated) What is its recorded EC50?
597
